Values compiled from patent US20130338190A1.

Give measured Vd/F for each item. Keep answers brief.
# Assay method text: Pharmacokinetics assay in rats (LC/MS/MS of plasma)
# Type: in vivo, Sprague Dawley (SD) rats
# Condition: both sexes, Sprague-Dawley, rat, plasma, po, 25 mg/kg, gavage, read-out: Vz/F
Where a name gives a salt, the structure may show the parent alone.
The figure you give is taken to be in L/kg; do not add the unit.

The reported value for CCOc1cc2ncc(C#N)c(Nc3ccc(OCc4ccccn4)c(Cl)c3)c2cc1NC(=O)/C=C/[C@H]1CCCN1C.Cc1ccc(S(=O)(=O)O)cc1 in terms of Vd/F is 3.23

The reported value for CCOc1cc2ncc(C#N)c(Nc3ccc(OCc4ccccn4)c(Cl)c3)c2cc1NC(=O)/C=C/[C@H]1CCCN1C.CS(=O)(=O)O in terms of Vd/F is 1.6

The reported value for CCOc1cc2ncc(C#N)c(Nc3ccc(OCc4ccccn4)c(Cl)c3)c2cc1NC(=O)/C=C/[C@H]1CCCN1C [Example 9, dihydrochloride] in terms of Vd/F is 1.99

The reported value for CCOc1cc2ncc(C#N)c(Nc3ccc(OCc4ccccn4)c(Cl)c3)c2cc1NC(=O)/C=C/[C@H]1CCCN1C.O=C(O)/C=C\C(=O)O in terms of Vd/F is 1.84

###

# Assay method text: Pharmacokinetics assay in rats (LC/MS/MS of plasma)
# Type: in vivo, Sprague Dawley (SD) rats
# Condition: both sexes, Sprague-Dawley, rat, plasma, po, 25 mg/kg, gavage
Where a name gives a salt, the structure may show the parent alone.
Give measured half-life for each item. Keep answers brief.
The figure you give is taken to be in h; do not add the unit.

The reported value for CCOc1cc2ncc(C#N)c(Nc3ccc(OCc4ccccn4)c(Cl)c3)c2cc1NC(=O)/C=C/[C@H]1CCCN1C.CS(=O)(=O)O in terms of half-life is 3.67

The reported value for CCOc1cc2ncc(C#N)c(Nc3ccc(OCc4ccccn4)c(Cl)c3)c2cc1NC(=O)/C=C/[C@H]1CCCN1C [Example 9, dihydrochloride] in terms of half-life is 3.47

The reported value for CCOc1cc2ncc(C#N)c(Nc3ccc(OCc4ccccn4)c(Cl)c3)c2cc1NC(=O)/C=C/[C@H]1CCCN1C.Cc1ccc(S(=O)(=O)O)cc1 in terms of half-life is 3.52

The reported value for CCOc1cc2ncc(C#N)c(Nc3ccc(OCc4ccccn4)c(Cl)c3)c2cc1NC(=O)/C=C/[C@H]1CCCN1C.O=C(O)/C=C\C(=O)O in terms of half-life is 4.45

###

Give measured MRT for each item. Keep answers brief.
# Assay method text: Pharmacokinetics assay in rats (LC/MS/MS of plasma)
# Assay type: in vivo, Sprague Dawley (SD) rats
# Condition: both sexes, Sprague-Dawley, rat, plasma, po, 25 mg/kg, gavage, read-out: MRT
Structures can show the parent of a compound that is named as a salt.
The figure you give is taken to be in h; do not add the unit.

The reported value for CCOc1cc2ncc(C#N)c(Nc3ccc(OCc4ccccn4)c(Cl)c3)c2cc1NC(=O)/C=C/[C@H]1CCCN1C.Cc1ccc(S(=O)(=O)O)cc1 in terms of MRT is 7.9

The reported value for CCOc1cc2ncc(C#N)c(Nc3ccc(OCc4ccccn4)c(Cl)c3)c2cc1NC(=O)/C=C/[C@H]1CCCN1C.O=C(O)/C=C\C(=O)O in terms of MRT is 8.03

The reported value for CCOc1cc2ncc(C#N)c(Nc3ccc(OCc4ccccn4)c(Cl)c3)c2cc1NC(=O)/C=C/[C@H]1CCCN1C.CS(=O)(=O)O in terms of MRT is 8.4

The reported value for CCOc1cc2ncc(C#N)c(Nc3ccc(OCc4ccccn4)c(Cl)c3)c2cc1NC(=O)/C=C/[C@H]1CCCN1C [Example 9, dihydrochloride] in terms of MRT is 7.96
